Biological target: aldose reductase (Bos taurus, UniProt P16116)
Construct: preparation of the enzyme from bovine lens; from tissue; host or cells: bovine lens
Assay: in vitro aldose reductase inhibition (modified Hayman and Kinoshita procedure; enzyme from bovine lens)
Assay type: biochemical
Conditions: molar concentration 10^-7; read-out: % Inhibition At Different Molar Concentrations (in vitro)
Experimental: In the present case the procedure of Hayman and Kinoshita is modified in that the final chromatography step is omitted in the preparation of the enzyme from bovine lens. The following results were obtained when the foregoing listed compounds of formula I were evaluated in the above in vitro test.
ENDPOINT_LABEL: inhibition at 0.1 µM (%)

Some entries whose results are on file:
CC(=O)c1c2cccccc-2n(CC(=O)O)c1=O | 3
O=C(O)Cn1c2cccccc-2c(C(=O)O)c1=O | 44
O=C(O)Cn1c2cccccc-2c(C(=O)O)c1=S | 47
N#Cc1c2cccccc-2n(CC(=O)O)c1=O | 48
NC(=O)c1c2cccccc-2n(CC(=O)O)c1=O | 7

1 = O=C(O)Cn1c2ccc(Cl)ccc-2c(C(=O)O)c1=O
2 = CC(C)(C)C(=O)OCOC(=O)Cn1c2cccccc-2c(C(=O)OCOC(=O)C(C)(C)C)c1=O
Exercise: Among 1 and 2 , which shows a numerically higher inhibition at 0.1 µM result? Which one? Tell me its label.
Solution: 1
(1: 36%, 2: 9%)

====

Molecular target: aldose reductase (Bos taurus)
Construct: preparation of the enzyme from bovine lens; from tissue; host or cells: bovine lens
Assay: in vitro aldose reductase inhibition (modified Hayman and Kinoshita procedure; enzyme from bovine lens)
Format: biochemical
Details: molar concentration 10^-6; read-out: % Inhibition At Different Molar Concentrations (in vitro)
ENDPOINT_LABEL: inhibition at 1 µM (%)

Some entries whose results are on file:
N#Cc1c2cccccc-2n(CC(=O)O)c1=O [Example 12] | 82
O=C(O)Cn1c2ccc(Cl)ccc-2c(C(=O)O)c1=O [Example 9] | 78
CC(C)(C)C(=O)OCOC(=O)Cn1c2cccccc-2c(C(=O)OCOC(=O)C(C)(C)C)c1=O [Example 6] | 44
CCOC(=O)c1c2ccc(Cl)ccc-2n(CC(=O)O)c1=O [Example 10] | 34

1 = O=C(O)Cn1c2cccccc-2c(C(=O)O)c1=S [Example 5]
2 = CC(=O)c1c2cccccc-2n(CC(=O)O)c1=O [Example 7]
3 = CC(=O)c1c2ccc(Cl)ccc-2n(CC(=O)O)c1=O [Example 11]
Exercise: Sort (3 compounds) by inhibition at 1 µM: min first. To answer, arrange all of the labels according to the requested order.
Solution: 2, 3, 1
(2: 26%, 3: 52%, 1: 85%)

====

Target: aldose reductase (Bos taurus)
Construct: preparation of the enzyme from bovine lens; from tissue; host or cells: bovine lens
Experiment: in vitro aldose reductase inhibition (modified Hayman and Kinoshita procedure; enzyme from bovine lens)
Type: biochemical
Conditions: molar concentration 10^-5; read-out: % Inhibition At Different Molar Concentrations (in vitro)
ENDPOINT_LABEL: inhibition at 10 µM (%)

CCOC(=O)c1c2cccccc-2n(CC(=O)O)c1=O | 73
CC(=O)c1c2ccc(Cl)ccc-2n(CC(=O)O)c1=O | 85
N#Cc1c2cccccc-2n(CC(=O)O)c1=O | 88
CCOC(=O)c1c2ccc(Cl)ccc-2n(CC(=O)O)c1=O | 76
O=C(O)Cn1c2ccc(Cl)ccc-2c(C(=O)O)c1=O | 85
O=C(O)C[n+]1cc(C(=O)O)c2cccccc1-2 | 80
NC(=O)c1c2cccccc-2n(CC(=O)O)c1=O | 73
O=C(O)Cn1c2cccccc-2c(C(=O)O)c1=S | 93
O=C(O)Cn1c2cccccc-2cc1=O | 80
CC(C)(C)C(=O)OCOC(=O)Cn1c2cccccc-2c(C(=O)OCOC(=O)C(C)(C)C)c1=O | 75
O=C(O)Cn1c2cccccc-2c(C(=O)O)c1=O | 88
CCc1c2cccccc-2n(CC(=O)O)c1=O | 60
CC(=O)c1c2cccccc-2n(CC(=O)O)c1=O | 76

====

Biological target: aldose reductase (Bos taurus)
Construct: preparation of the enzyme from bovine lens; from tissue; host or cells: bovine lens
Assay: in vitro aldose reductase inhibition (modified Hayman and Kinoshita procedure; enzyme from bovine lens)
Format: biochemical
Settings: molar concentration 10^-6; read-out: % Inhibition At Different Molar Concentrations (in vitro)
ENDPOINT_LABEL: inhibition at 1 µM (%)

Some entries whose results are on file:
CCOC(=O)c1c2cccccc-2n(CC(=O)O)c1=O | 26
O=C(O)Cn1c2cccccc-2c(C(=O)O)c1=O | 82
CCc1c2cccccc-2n(CC(=O)O)c1=O | 19

P = NC(=O)c1c2cccccc-2n(CC(=O)O)c1=O
Q = O=C(O)Cn1c2cccccc-2cc1=O
Exercise: I'm curious, which of these has a smaller inhibition at 1 µM number: P or Q ? Which one? Tell me its label.
Solution: P

====

Target: aldose reductase (Bos taurus)
Construct: preparation of the enzyme from bovine lens; from tissue; host or cells: bovine lens
Assay: in vitro aldose reductase inhibition (modified Hayman and Kinoshita procedure; enzyme from bovine lens)
Type: biochemical
Details: molar concentration 10^-7; read-out: % Inhibition At Different Molar Concentrations (in vitro)
ENDPOINT_LABEL: inhibition at 0.1 µM (%)

a = CCOC(=O)c1c2ccc(Cl)ccc-2n(CC(=O)O)c1=O
b = O=C(O)C[n+]1cc(C(=O)O)c2cccccc1-2
Exercise: I'm curious, which of these has a smaller inhibition at 0.1 µM number: a or b ? Which one? Tell me its label.
Solution: a
